# stated-conditions: 293.15 K; 101 kPa; Liquid
measure-name: mass density (kg/m3)
Give bare numbers, in kg/m3.

Okay, here is my list. What is mass density for each of these?
1. CCCCCCCCCCO
2. CCCCCCCCO
3. BrC(Br)C(Br)Br

**Result**
829.7
824.99
2963.2

Okay, here is my list. What is mass density for each of these?
1. CCCCCCO
2. CCCCCO
3. CCCCCCCO

**Result**
1. 818.92
2. 815.03
3. 822.39

----------
# test-details: refractive index (Na D-line) (dimensionless)
# stated-conditions: 293.15 K; 101.33 kPa; Liquid
Numbers after ± are expanded uncertainties.
So I've got a bunch of compounds here, and I need their refractive index values.

Worked examples, 2 compounds total:
INSERT INTO assay_data (compound, measure_name, measured_value) VALUES
  ('CCCCCCCCO [octan-1-ol]', 'refractive index', '1.42958 ± 0.00065'),
  ('CCCCCO [pentan-1-ol]', 'refractive index', '1.40995 ± 0.00065');

Okay, here is my list. What is refractive index for each of these?
1. BrC(Br)C(Br)Br [1,1,2,2-tetrabromoethane]
2. CCCCCCCO [heptan-1-ol]
3. CCCCCCO [hexan-1-ol]
4. CCCCCCCCCCO [decan-1-ol]

**Result**
1. 1.63535 ± 0.00065
2. 1.42397 ± 0.00065
3. 1.41826 ± 0.00065
4. 1.43706 ± 0.00065
